# target-desc: KRAS G13D antigen (G13D-RT6, SEQ ID NO: 20) loaded on Lovo-DPA0301:DPB0501 cells (human)
# assay: cell-based or functional assay
# reported TCR Mut RLU/WT RLU; entries follow
Numeric only. Scale: ratio

Below, each entry is followed by its recorded TCR Mut RLU/WT RLU result.
B8.2.4 TCR mutant β98P-E (TCR, V domains shown) V domain 1: AQKITQTQPGMFVQEKEAVTLDCTYDTSDPSYGLFWYKQPSSGEMIFLIYQGSYDQQNATEGRYSLNFQKARKSANLVISASQLGDSAMYFCAMRERTGTASKLTFGTGTRLQVTL V domain 2: DVKVTQSSRYLVKRTGEKVFLECVQDMDHENMFWYRQDPGLGLRLIYFSYDVKMKEKGDIPEGYSVSREKKERFSLILESASTNQTSMYLCASSQTVEPQHFGDGTRLSILE :: 0.99
B8.2.4 TCR mutant β97V-A (TCR, V domains shown) V domain 1: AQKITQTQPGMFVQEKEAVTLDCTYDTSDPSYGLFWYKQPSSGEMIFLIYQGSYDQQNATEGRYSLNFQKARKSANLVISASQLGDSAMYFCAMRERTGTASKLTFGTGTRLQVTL V domain 2: DVKVTQSSRYLVKRTGEKVFLECVQDMDHENMFWYRQDPGLGLRLIYFSYDVKMKEKGDIPEGYSVSREKKERFSLILESASTNQTSMYLCASSQTAPPQHFGDGTRLSILE :: 0.56

// TCR Mut RLU/WT RLU value for B8.2.4 TCR mutant β95Q-P (TCR, V domains shown) V domain 1: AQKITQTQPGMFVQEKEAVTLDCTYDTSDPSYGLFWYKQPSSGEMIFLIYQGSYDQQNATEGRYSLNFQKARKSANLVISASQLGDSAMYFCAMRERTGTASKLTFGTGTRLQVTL V domain 2: DVKVTQSSRYLVKRTGEKVFLECVQDMDHENMFWYRQDPGLGLRLIYFSYDVKMKEKGDIPEGYSVSREKKERFSLILESASTNQTSMYLCASSPTVPPQHFGDGTRLSILE : 0.21
